Test: binders of probe aHhip on microarray, primary screen, stem cell growth factor project, biochemical, small-molecule microarray, fluorescence 635/667 (AID 1087);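 also: score merges spot fluorescence at 667nm with spot signal to noise ratio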
Conditions: higher = more signal
Grouping rule (composite z-score): class 1 (below -0.2), class 2 (-0.2 to below 0.04), class 3 (0.04 or more)

Which bin should I file COC(=O)C1=C(C)N(Cc2ccccc2)[C@]23O[C@](C(=O)OC)(C(=O)N2[C@@H]1c1ccccc1)C(C(=O)OC)=C3C(=O)OC under?
class 2

State the band of CO[C@H]1COC(=O)CC=C[C@@H](C)[C@H](OC)COC(=O)[C@@H]2CCCN2C(=O)CC=C[C@@H]1C
class 2

For the record COC(=O)CC=C[C@@H](C)[C@@H](C=NO[C@@H]1O[C@H](COC(C)=O)[C@@H](OC(C)=O)[C@H](OC(C)=O)[C@H]1OC(C)=O)OC , report the class its composite z-score corresponds to.
class 3

Which bin, given its composite z-score, does CCN1C(=O)[C@H]2[C@H]3[C@H](O)[C@H](O)CC(=O)[C@@H]3CC[C@H]2C1=O occupy?
class 1

Please let me know in which category the item Cn1c(=O)n2n(c1=O)[C@H]1[C@H](O)[C@@H]3O[C@@H]3C(=NOCc3ccccc3)[C@H]1CC2 belongs.
class 2

Lab note: sort CCOC(=O)[C@H](CC(C)C)NC(=O)CCC1CC(OC(=O)NCc2cccc3ccccc23)CC2(CCCC(COC(=O)NCCCN3CCCC3=O)O2)O1 (stereo partly drawn) into the matching composite z-score band.
class 1

In plain terms, what class is CCOC(=O)NN=C1C[C@@H](O)[C@@H](O)[C@@H]2[C@@H]3C(=O)N(c4ccc(F)cc4F)C(=O)[C@@H]3CC[C@@H]12 ?
class 2

Please classify: CCOC(=O)[C@H](Cc1ccccc1)NC(=O)CCC1CC(OC(=O)NCc2cccc3ccccc23)CC2(CCCC(COC(=O)NCC(c3ccccc3)c3ccccc3)O2)O1 (stereo partly drawn)
class 2

Band for the recorded composite z-score of Cc1ccc(S(=O)(=O)NC(CCc2ccccc2)CC(=O)C(C)(C)C)cc1 (stereo not drawn) ?
class 1

For the record CC(=O)OC[C@H]1O[C@@H](ON=C(C)CCN2CCCc3nc(C)c(C)cc32)[C@H](OC(C)=O)[C@@H](OC(C)=O)[C@@H]1OC(C)=O , report the class its composite z-score corresponds to.
class 2

Which class holds C=CC[C@@H]1C=C[C@H](ON=C(C)CCC(=O)OC[C@H]2O[C@H](C#Cc3ccccc3)C=C[C@@H]2Oc2ccc(C)cc2)[C@@H](CO)O1 ?
class 2

Lab log: CC(C)CCN1CCc2nc(COc3ccccc3)c3c(c2C1)CO[C@@H](C)C3 — assign composite z-score category
class 3

Sort into band: CC(CCN1CCCCc2nc(C)c(C)cc21)=NO[C@@H](C)c1cn([C@H](CO)Cc2ccccc2)nn1
class 3

Would you mind sorting COC(=O)[C@H](C)NC(=O)CCC1CC(OC(=O)NCc2ccc3c(c2)OCO3)CC2(CCCC(COC(=O)NCC(c3ccccc3)c3ccccc3)O2)O1 (stereo partly drawn) into the appropriate category?
class 2

Class label required: CO[C@H]1COC(=O)CC=C[C@H](C)[C@@H](OC)COC(=O)[C@@H](C)COC(=O)CC=C[C@@H]1C
class 3

Looking at COc1cccc([C@H]2Oc3ccc(OC)cc3C(=NOC[C@@H](O)COCc3ccco3)[C@@H]2O)c1 , which class would you pick?
class 1

Bin? C=CC[C@@H]1C=C[C@H](ON=C2[C@H]3CCn4c(=O)n(-c5ccccc5)c(=O)n4[C@H]3[C@H](O)[C@@H]3O[C@H]23)[C@@H](CO)O1
class 3

---

Molecular target: Torsin-1A (Homo sapiens) (UniProt O14656)
Sequence (O14656 whole entry, looked up): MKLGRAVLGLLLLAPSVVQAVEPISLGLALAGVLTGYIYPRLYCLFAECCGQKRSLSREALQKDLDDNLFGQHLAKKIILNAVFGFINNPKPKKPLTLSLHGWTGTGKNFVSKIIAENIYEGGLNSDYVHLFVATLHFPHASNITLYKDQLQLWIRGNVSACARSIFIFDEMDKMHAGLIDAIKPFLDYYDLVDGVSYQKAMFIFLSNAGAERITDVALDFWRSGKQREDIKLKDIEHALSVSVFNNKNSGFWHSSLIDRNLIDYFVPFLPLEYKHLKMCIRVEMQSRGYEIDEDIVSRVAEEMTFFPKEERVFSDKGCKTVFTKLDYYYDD
Assay: torsin A binders from cell lysate, primary screen, small-molecule microarray, wild-type, 635/667 nm (AID 1149)
Details: COS7 hTOR1A-WT lysate, 635 nm fluorescence, higher = more signal
Please respond with reported composite z-score for every item in the list.
Would you mind answering with just the numeric figure?

Short answer for COC(=O)CC=C[C@@H](C)[C@@H](C=NO[C@@H](C)c1cn([C@H](CO)Cc2ccccc2)nn1)OC : composite z-score was 0.652

Just so you know, measured composite z-score for CO[C@@H]1COC(=O)[C@H](CCSC)NC(=O)CC=C[C@@H](C)COC(=O)CCC[C@H]1C came out at 4.03

response.value for COC(=O)[C@@H]1CC[C@H](C)[C@@H](c2ccc(C)cc2)N1C(=O)c1ccc(C=NO[C@H](C)c2cn([C@@H]3COC[C@H]3O)nn2)cc1 (field: composite z-score) = 0.28

Quick note, composite z-score for CC[C@@H](c1ccccc1)n1c(=O)n2n(c1=O)[C@H]1[C@H](O)[C@@H]3O[C@@H]3C(=NOC[C@@H](O)COCc3ccco3)[C@H]1CC2 landed at -0.354

Quick note, composite z-score for C#CCCCON=C1C[C@@H](O)[C@@H](O)[C@@H]2[C@@H]3C(=O)N(Cc4ccccc4)C(=O)[C@@H]3CC[C@@H]12 landed at 0.103

The compound COC(=O)CC=C[C@@H](C)[C@@H](C=NOCC[C@@H]1C=C[C@H](OC(C)=O)[C@@H](COC(C)=O)O1)OC showed composite z-score equal to 0.563

Looking up CCOC(=O)NN=C1C[C@@H](O)[C@@H](O)[C@@H]2[C@@H]3C(=O)N([C@@H](C)c4ccccc4)C(=O)[C@@H]3CC[C@@H]12 , I found its composite z-score recorded as 2.58

For reference, reported composite z-score for CC(CCN1CCCCc2nc(C)c(C)cc21)=NO[C@@H](C)c1cn([C@H](CO)Cc2ccccc2)nn1 stands at 0.803

Documented composite z-score of O=C1C2=CC[C@H]3C(=O)N(c4cccc(Oc5ccccc5)c4)C(=O)[C@H]3[C@H]2[C@H](O)[C@@H]2O[C@H]12 : 0.181

The compound identified as CCOC(=O)[C@H](CC(C)C)NC(=O)CCC1CC(OC(=O)NCc2cccc3ccccc23)CC2(CCCC(COC(=O)NCCOc3ccccc3)O2)O1 (stereo partly specified) registered its composite z-score at 0.236

Record COc1ccc(COC(=O)NN=C2C[C@@H](O)[C@@H](O)[C@@H]3[C@@H]4C(=O)N(c5cccc(Oc6ccccc6)c5)C(=O)[C@@H]4CC[C@@H]23)cc1 . Reported composite z-score: 0.574

Summary for this compound, CC(C)(C)N1C(=O)[C@H]2[C@H]3[C@H](O)[C@H](O)CC(=O)[C@H]3CC[C@H]2C1=O : composite z-score is 0.128

For O=C1[C@H]2[C@H]3[C@H](O)[C@H](O)CC(=NOCc4ccccc4)[C@@H]3CC[C@H]2C(=O)N1Cc1ccc2c(c1)OCO2 the compound record lists composite z-score as 0.537

O=c1n(-c2ccccc2)c(=O)n2n1CC[C@@H]1C(=NOCc3ccccc3)[C@H]3O[C@H]3[C@@H](O)[C@@H]12 yielded composite z-score of -0.614

composite z-score reported for this compound CC(C)CON=C1C[C@@H](O)[C@@H](O)[C@@H]2[C@@H]3C(=O)N(C[C@@H]4CCCO4)C(=O)[C@@H]3CC[C@@H]12 : -0.25

compound CC(C)CON=C1[C@H]2CCn3c(=O)n(Cc4cc5c(cc4Cl)OCO5)c(=O)n3[C@H]2[C@H](O)[C@@H]2O[C@H]12 , composite z-score observed: 1.39

Value of measured composite z-score for the entry C=CC[C@@H]1C=C[C@H](ON=C(C)CCC(=O)OC[C@H]2O[C@H](C#Cc3ccccc3)C=C[C@@H]2Oc2ccc(C)cc2)[C@@H](CO)O1 : 0.569

For Cc1ccc(S(=O)(=O)NC(CCc2ccccc2)CC(=O)C(C)(C)C)cc1 (stereo unspecified) the compound record lists composite z-score as 0.511

Memo: CCOC(=O)[C@H](CC(C)C)NC(=O)CCC1CC(OC(=O)NCc2cccc3ccccc23)CC2(CCCC(COC(=O)NCCC(C)C)O2)O1 (stereo partly specified) , reported composite z-score: -0.0418

Briefly, composite z-score measured for COc1ccc(O[C@H]2C=C[C@@H](c3ccccc3)O[C@@H]2COC(=O)CCC(C)=NOC(C)CN2CCCc3nc(C)c(C)cc32)cc1 (stereo partly specified) : 0.0595

Memo: CON=C(C)CCC(=O)OC[C@H]1O[C@H](c2ccccc2)C=C[C@@H]1Oc1ccc(OC)cc1 , reported composite z-score: 0.0952

---

Molecular target: Albumin (Bos taurus)
Assay: bovine serum albumin binders on microarray, profiling panel, artefact control for SMM control protein annotation, biochemical, small-molecule microarray, Alexa647 label, 635/667 nm fluorescence (AID 1118);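 also: score merges 667 nm emission intensity and signal-to-noise per printed compound spot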
Details: BSA-A647 binding, fluorescence 635 nm, higher = more signal
ASSAY ENDPOINT: composite z-score
Write no unit; give the number alone.

Quick note, composite z-score for CC(C)=NOC[C@@H](C)[C@H](OCc1ccccc1)C(C)C landed at -0.0998

Reported composite z-score for CC[C@@H](c1ccccc1)n1c(=O)n2n(c1=O)[C@H]1[C@H](O)[C@@H]3O[C@@H]3C(=O)[C@H]1CC2 was 0.208

GET /value?item= COc1cccc([C@@H]2Oc3ccc(OC)cc3C(=O)[C@H]2O)c1 &field=composite z-score returns 0.78

Value of composite z-score reported for the compound CCOC(=O)[C@H](CC(C)C)NC(=O)CCC1CC(OC(=O)NCCc2ccc(F)cc2)CC2(CCCC(COC(=O)NCCOc3ccccc3)O2)O1 (some centres not stated) is 0.671

GET /value?item= COC(=O)CC=C[C@@H](C)[C@@H](C=NO[C@H](C)c1cn([C@@H]2COC[C@H]2O)nn1)NS(=O)(=O)c1ccc(C)cc1 &field=composite z-score returns -0.129

For reference, reported composite z-score for CO[C@@H]1COC(=O)CC=C[C@@H](C)[C@@H]2C=C[C@H](O)[C@@H](COC(=O)CC=C[C@H]1C)O2 stands at -0.806

For record C=CC1=C[C@H](O)[C@@H]2O[C@@H]2C12OCCCO2 the listed composite z-score is -0.728

compound CON=CC[C@@H]1C=C[C@H](OC(C)=O)[C@@H](COC(C)=O)O1 , composite z-score observed: -0.714

Note to self: composite z-score recorded for CCOC(=O)[C@H](CC(C)C)NC(=O)CCC1CC(OC(=O)NCc2cccc3ccccc23)CC2(CCCC(COC(=O)NCCC(C)C)O2)O1 (some centres not stated) was 0.352

So, CCCNC(=O)OC[C@H]1O[C@H](CCON=C(C)C)C=C[C@@H]1Oc1ccc(OC)cc1 ? Its composite z-score was 0.317

Notebook: CO[C@@H]1COC(=O)[C@@H]2CCCN2C(=O)[C@@H](C)COC(=O)CC=C[C@H]1C , composite z-score read as 0.0417

Summary for this compound, O=C1CCCC=C1C(O)CCCCBr (configuration not stated) : composite z-score is 0.956

For this compound ( CC(C)=CCCC(C)=CCON=C1C[C@@H](O)[C@@H](O)[C@@H]2[C@@H]3C(=O)N(C[C@@H]4CCCO4)C(=O)[C@@H]3CC[C@H]12 ), measured composite z-score is 0.816

Sample CC(C)=CCCC(C)=CCON=C1C[C@@H](O)[C@@H](O)[C@@H]2[C@@H]3C(=O)N(C4CCCCC4)C(=O)[C@@H]3CC[C@@H]12 ; composite z-score observed: 0.0108

The measured composite z-score associated with CO[C@@H]1C=CCC(=O)N2CCC[C@H]2C(=O)OC[C@@H](C)C(=O)OC[C@H]1C reads -0.709

composite z-score reading for CCOC(=O)[C@H](Cc1ccccc1)NC(=O)CCC1CC(OC(=O)NCCc2ccc(F)cc2)CC2(CCCC(COC(=O)NCCCN3CCCC3=O)O2)O1 (some centres not stated) : 0.468

Per the record, CC(CCC(=O)OC[C@H]1O[C@H](C#Cc2ccccc2)C=C[C@@H]1Oc1ccc(C)cc1)=NO[C@H](C)c1cn([C@H](CO)Cc2ccccc2)nn1 has composite z-score of 0.276

Measured values drawn from PubChem BioAssay for this set.
